- assay_details: Assessment of solubility (McIlvaine buffers, 24 h shake, UPLC-UV)
- Assay type: physicochemical
- condition_context: pH 6.8, aqueous buffer, kinetic from dmso stock
experimental_endpoint: solubility at 24 h (mg/mL)

See these solved cases before continuing.
| compound | experimental_endpoint | endpoint_result |
| --- | --- | --- |
| CCOc1c(C(=O)O)cnn1-c1cccc(-c2cccc(C)c2OCc2ccc3c(c2C)CCN(C[C@H]2CCCCO2)CC3)n1 | solubility at 24 h | 0.069 |
| CCOc1c(C(=O)O)cnn1-c1cccc(-c2cccc(Cl)c2OCc2ccc3c(c2)CCN(C2CCC(F)(F)CC2)C3)n1 | solubility at 24 h | 0.051 |
| COc1c(C(=O)O)cnn1-c1cccc(-c2cccc(C)c2OCc2cc(C)c3c(c2)CCN(C2CCOC2)C3)n1 (stereo not shown) | solubility at 24 h | 0.078 |
| CC(C)Oc1c(C(=O)O)cnn1-c1cccc(-c2ccccc2OCc2ccc3c(c2)CCN(C2CCOCC2)C3)n1 | solubility at 24 h | 0.093 |
| CCOc1c(C(=O)O)cnn1-c1cccc(-c2cccc(C)c2OCc2ccc3c(c2C)CCN(C[C@H]2CCOC2)C3)n1 | solubility at 24 h | 0.073 |

a. COc1c(C(=O)O)cnn1-c1cccc(-c2cccc(C)c2OCc2ccc3c(c2C)CCN(C[C@@H]2CCCO2)CC3)n1
b. CCOc1c(C(=O)O)cnn1-c1cccc(-c2cccc(C)c2OCc2ccc3c(c2)OCCN(C2CCOCC2)C3)n1
Prompt: Which value of solubility at 24 h is numerically greater: that of a or that of b ? In your reply, give the label of the chosen option.
Completion: b
(b: 0.11 mg/mL, a: 0.069 mg/mL)

====

- experimental_target: human soluble guanylate cyclase alpha 1 and beta 1 subunits (sGC) (Homo sapiens, UniProt Q02108+Q02153)
- Sequence (Q02108 whole entry): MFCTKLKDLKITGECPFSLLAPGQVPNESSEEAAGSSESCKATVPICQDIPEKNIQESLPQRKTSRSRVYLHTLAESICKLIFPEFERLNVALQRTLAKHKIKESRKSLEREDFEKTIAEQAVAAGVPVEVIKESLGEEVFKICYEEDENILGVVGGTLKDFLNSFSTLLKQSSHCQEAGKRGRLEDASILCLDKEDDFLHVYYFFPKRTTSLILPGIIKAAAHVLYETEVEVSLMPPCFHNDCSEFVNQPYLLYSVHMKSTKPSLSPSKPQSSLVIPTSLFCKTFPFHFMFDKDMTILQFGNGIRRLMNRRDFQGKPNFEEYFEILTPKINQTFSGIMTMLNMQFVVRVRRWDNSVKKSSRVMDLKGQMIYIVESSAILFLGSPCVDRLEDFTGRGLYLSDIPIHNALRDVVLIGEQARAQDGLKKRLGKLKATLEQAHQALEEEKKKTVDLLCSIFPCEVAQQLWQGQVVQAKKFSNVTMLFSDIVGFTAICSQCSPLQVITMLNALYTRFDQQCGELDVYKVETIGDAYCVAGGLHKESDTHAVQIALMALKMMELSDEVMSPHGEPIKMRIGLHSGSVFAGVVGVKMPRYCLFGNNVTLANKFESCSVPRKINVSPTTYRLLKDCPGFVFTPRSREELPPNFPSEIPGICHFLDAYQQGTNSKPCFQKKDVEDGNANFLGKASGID
- Sequence (Q02153 whole entry): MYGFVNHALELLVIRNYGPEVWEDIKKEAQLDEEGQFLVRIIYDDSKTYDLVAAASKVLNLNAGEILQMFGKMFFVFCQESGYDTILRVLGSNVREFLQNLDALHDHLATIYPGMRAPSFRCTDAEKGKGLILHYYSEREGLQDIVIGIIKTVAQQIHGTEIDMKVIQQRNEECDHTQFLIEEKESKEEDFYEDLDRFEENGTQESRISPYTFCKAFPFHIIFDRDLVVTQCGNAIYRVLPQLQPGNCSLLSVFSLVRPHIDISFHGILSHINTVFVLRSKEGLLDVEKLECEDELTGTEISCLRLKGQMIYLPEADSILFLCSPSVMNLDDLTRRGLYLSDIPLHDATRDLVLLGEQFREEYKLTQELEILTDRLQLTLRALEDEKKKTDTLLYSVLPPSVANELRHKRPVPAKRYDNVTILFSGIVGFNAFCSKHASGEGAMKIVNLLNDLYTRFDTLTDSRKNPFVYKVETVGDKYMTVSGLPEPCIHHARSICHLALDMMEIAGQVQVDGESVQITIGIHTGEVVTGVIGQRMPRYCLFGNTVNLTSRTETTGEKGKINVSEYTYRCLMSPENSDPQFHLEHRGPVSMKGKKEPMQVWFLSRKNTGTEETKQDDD
- assay_details: sGC cellular activator assay (cGMP, HTRF)
- condition_context: CHO cells stably expressing human sGC alpha 1/beta 1, preincubated with 40 microM ODQ; cGMP readout; assay run with and without 50% human serum, Table 2 does not say which
- Description: The sGC cellular activator assay is performed in the presence and absence of 50% human serum (HS) using Chinese hamster ovary cells that have been stably transfected to express the human soluble guanylate cyclase alpha 1 and beta 1 subunits (sGC). […] Diluted compounds are added to cells and they are incubated at room temperature for thirty min. cGMP is measured using a CisBio homogeneous time resolved fluorescence kit and the EC50 is calculated for each compound. […]
experimental_endpoint: EC50 (nM)

Here is how some compounds turned out for EC50.
| compound | EC50 [nM] |
| --- | --- |
| CCOc1c(C(=O)O)cnn1-c1cccc(-c2cccc(C)c2OCc2ccc3c(c2)CCN(CC2CCOCC2)C3)n1 [Compound 69] | 61 |
| CCOc1c(C(=O)O)cnn1-c1cccc(-c2cccc(C)c2OCc2ccc3c(c2C)CCN([C@@H]2CCOC2)CC3)n1 [Compound 227] | 13 |
| CCOc1c(C(=O)O)cnn1-c1cccc(-c2cccc(C)c2OCc2ccc3c(c2C)CCN(C[C@@H]2CCCOC2)C3)n1 [Compound 152] | 14 |

I. CCOc1c(C(=O)O)cnn1-c1cccc(-c2cccc(C)c2OCc2ccc3c(c2)CCN(CC2CCCO2)C3)n1 (centres unmarked) [Compound 101]
II. CCOc1c(C(=O)O)cnn1-c1cccc(-c2cccc(C)c2OCc2cc(C)c3c(c2)CCN(CC2COCCO2)C3)n1 (centres unmarked) [Compound 243]
III. COc1c(C(=O)O)cnn1-c1cccc(-c2cccc(C)c2OCc2ccc3c(c2C)CCN(C[C@@H]2COCCO2)C3)n1 [Compound 139]
IV. Cc1cccc(-c2cccc(-n3ncc(C(=O)O)c3OC(C)C)n2)c1OCc1ccc2c(c1)CCN([C@H]1CCCOC1)C2 [Compound 115]
Prompt: Place the items in sequence of falling EC50. Answer format: list of labels, ordered as asked.
Completion: I, IV, II, III

a. CCOc1c(C(=O)O)cnn1-c1cccc(-c2cccc(Cl)c2OCc2ccc3c(c2)CCNC3)n1 [Compound 50]
b. COc1c(C(=O)O)cnn1-c1cccc(-c2cccc(C)c2OCc2cc(C)c3c(c2C)CCN(C2COC2)C3)n1 [Compound 178]
Prompt: Record comparison, field EC50: mark the lower of a and b . Identify your selection by its label.
Completion: b
